The reported numbers originate from patent US20240270821A1.

# systemUnderTest: human glucagon receptor (human) (UniProt P47871)
# Sequence (P47871 26-477): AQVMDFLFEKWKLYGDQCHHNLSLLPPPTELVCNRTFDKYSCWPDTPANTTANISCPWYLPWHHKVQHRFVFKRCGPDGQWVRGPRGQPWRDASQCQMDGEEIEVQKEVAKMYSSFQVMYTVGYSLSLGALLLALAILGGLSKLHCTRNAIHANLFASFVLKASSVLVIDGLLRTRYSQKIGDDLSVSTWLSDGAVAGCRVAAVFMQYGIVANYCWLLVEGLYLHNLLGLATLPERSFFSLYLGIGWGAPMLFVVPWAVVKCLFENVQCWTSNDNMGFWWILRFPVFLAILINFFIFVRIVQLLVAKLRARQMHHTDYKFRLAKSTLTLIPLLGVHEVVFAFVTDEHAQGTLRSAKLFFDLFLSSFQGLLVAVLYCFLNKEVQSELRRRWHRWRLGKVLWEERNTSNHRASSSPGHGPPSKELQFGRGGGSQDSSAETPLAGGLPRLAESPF
# testSummary: cell-based or functional assay
Starred links: 1 amine or outer side, 2 acyl side, 3 side chain; linkers in the order of their positions; H or OH if unused. Non-standard residues stand in square brackets, D forms with d. Groups on a side chain read outwards from the residue. No end group written: not given here. *: point of attachment. C20 diacid = O=C(O)CCCCCCCCCCCCCCCCCCC(=O)*; αMePhe(2-F) = C[C@](N)(Cc1ccccc1F)C(=O)O; γGlu = O=C(O)[C@H](CCC(=O)[*:2])N[*:1]; AEEA = NCCOCCOCC(=O)O; Aib = CC(C)(N)C(=O)O
Listing: cAMP Rel EC50 (in the presence of 1% HSA) of selected binders
State just the number; it will be interpreted in nM.

// below: answered binders
binder="YXQGTFTSDFSKXLDKKAQXAFIEYLLAGAPSSGAPPPSEG (synthetic construct; SITE 2: note = 2-Aminoisobutyric Acid; SITE 13: note = alpha-methyl-leucine; SITE 17: note = Lysine is chemically modified through conjugation of the epsilon-amino group of the Lysine side chain with (2-[2-(2-Amino-ethoxy)-ethoxy]-acetyl)-(gamma-Glu)-CO-(CH2) 18-CO2H; SITE 20: n) [Example 24]" scaleunit=nM observedvalue=1390
binder="YXQGTFTSDFSKXLDKKAQXAFIEYLLAGGPSSGEPPPSGS (synthetic construct; SITE 2: note = 2-Aminoisobutyric Acid; SITE 13: note = alpha-methyl-leucine; SITE 17: note = Lysine is chemically modified through conjugation of the epsilon-amino group of the Lysine side chain with (2-[2-(2-Amino-ethoxy)-ethoxy]-acetyl)-(gamma-Glu)-CO-(CH2) 18-CO2H; SITE 20: n) [Example 8]" scaleunit=nM observedvalue=1560
binder="Y[Aib]QGT[αMePhe(2-F)]TSDYSILLDKIAQK([AEEA-γGlu-C20 diacid])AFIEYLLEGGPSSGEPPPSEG-NH2 [Example 293]" scaleunit=nM observedvalue=1740

Recall and state the measured cAMP Rel EC50 (in the presence of 1% HSA) for YXQGTFTSDFSKXLDKKAQXAFIQWLLEGGPSSGAPPPSEG (synthetic construct; SITE 2: note = 2-Aminoisobutyric Acid; SITE 13: note = alpha-methyl-leucine; SITE 17: note = Lysine is chemically modified through conjugation of the epsilon-amino group of the Lysine side chain with (2-[2-(2-Amino-ethoxy)-ethoxy]-acetyl)-(gamma-Glu)-CO-(CH2) 18-CO2H; SITE 20: n) [Example 39] .
1090

Recall and state the measured cAMP Rel EC50 (in the presence of 1% HSA) for YXQGTFTSDFSKXLDKKAQXAFIEYLLAGGPSSGEPPPGEG (synthetic construct; SITE 2: note = 2-Aminoisobutyric Acid; SITE 13: note = alpha-methyl-leucine; SITE 17: note = Lysine is chemically modified through conjugation of the epsilon-amino group of the Lysine side chain with (2-[2-(2-Amino-ethoxy)-ethoxy]-acetyl)-(gamma-Glu)-CO-(CH2) 18-CO2H; SITE 20: n) [Example 31] .
1750

Recall and state the measured cAMP Rel EC50 (in the presence of 1% HSA) for YXQGTXTSDXSIXLDKKAQXXFIEYLAEGGPSSGEPPPSGSEE (non-natural residues; lipidated Lys (γGlu)2-C18 diacid; C-term amide; synthetic construct; SITE 2: note = 2-Aminoisobutyric Acid; SITE 6: note = alpha-methyl-2-fluoro-L-phenylalanine; SITE 10: note = 3-(4-Pyridyl)-L-alanine; SITE 13: note = alpha-methyl-leucine; SITE 17: note = Lysine is chemically modified through conjugation of the epsilon-amino group of the Lysine) [Example 636] .
935
